- target: human tumor necrosis factor-α (R & D Co., Catalog Number: 210-TA-050) (human, UniProt P01375 77-233)
- Sequence (P01375 77-233 limits assumed): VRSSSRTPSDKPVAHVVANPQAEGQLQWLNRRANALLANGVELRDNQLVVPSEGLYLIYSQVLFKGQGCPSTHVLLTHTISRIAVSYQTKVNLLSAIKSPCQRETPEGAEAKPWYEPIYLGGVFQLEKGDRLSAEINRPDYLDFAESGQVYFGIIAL
- protocol_notes: cell-based or functional assay
property_label: EC50, L929 cytotoxicity experiment
The answer should read as a number with its unit following.

Prompt: Any idea what its EC50, L929 cytotoxicity experiment is? The binder is KS04 (antibody, human IgG1, kappa, V domains shown) VH: QVQLVESGGGLVKPGGSLRLSCAASGFTFSNAWMNWVRQAPGKGLEWVAEIRSKSINSATHYAESVKGRFTISRDNSKKTLYLEMNSLRVEDTAVYYCSRNYYGSTYDYWGQGTTLTVSS VL: EIVLTQSPDFQSVTPKEKVTITCRASQSIYSSLHWYQQKPDQSPKLLIKFASQSVSGVPSRFSGSGSGTDFTLTINSLEAEDAATYYCQQSHSWPFTFGSGTNVDIKR
Response: 126 pM
